Each recorded value in this set is attributed to patent US20200179319A1.

// Initial (% weight of formulation) lookup, one value per entry
- testSummary: Stability Study 1: storage stability of a formulation comprising the disodium salt, HPLC
- Assay type: physicochemical
- measurementSetup: initial; formulation comprising the disodium salt; 25° C., heading 30° C.
- Description: The stability of a formulation comprising the disodium salt of […] In each case, the percentage of 4-(((R)-1-carboxy-2-(((2E,6E)-3,7,11-trimethyldodeca-2,6,10-trien-1-yl)thio)ethyl)amino)-4-oxobutanoic acid remaining at each time point was determined by use of HPLC.
Give the number; % is assumed, so skip it.

**Query** Need Initial (% weight of formulation), item CCCOC(=O)c1ccc(O)cc1 [Propylparaben]
**Result** 0.034

**Query** Need Initial (% weight of formulation), item CC(C)=CCC/C(C)=C/CC/C(C)=C/C[S+]([O-])C[C@H](NC(=O)CCC(=O)O)C(=O)O (stereo partly shown)
**Result** 0.037

**Query** Need Initial (% weight of formulation), item COC(=O)c1ccc(O)cc1 [Methylparaben]
**Result** 0.17

**Query** Need Initial (% weight of formulation), item "CC(C)=CCC/C(C)=C/CC/C(C)=C/CSC[C@H](NC(=O)CCC(=O)O)C(=O)O"
**Result** 3.09

* * *

- testSummary: Screening Study (Example 3): sulfoxide formed in API solution with each agent, HPLC
- Assay type: physicochemical
- measurementSetup: API disodium salt solution plus agent; 24 hours exposed to air at room temperature, not protected from light
quantityKind: Average % area sulfoxide for 3 runs per agent (%)
Give the number; % is assumed, so skip it.

| compound | units | reading |
| --- | --- | --- |
| Cc1cc(C(C)(C)C)c(O)c(C(C)(C)C)c1 [Butylated hydroxytoluene (BHT), Butylated hydroxytoluene] | % | 1.092 |
| O=S([O-])CO.[Na+] [sodium hydroxymethylsulfinate] | % | 1.548 |
| O=S([O-])([O-])=S.[Na+].[Na+] [Sodium thiosulfate] | % | 1.032 |

Kindly consider the entry below.
**Query** Need Average % area sulfoxide for 3 runs per agent, item "O=C(CO)[C@@H](O)[C@H](O)[C@H](O)CO"
**Result** 1.123

* * *

- testSummary: Stability Study 1: storage stability of a formulation comprising the disodium salt, HPLC
- Assay type: physicochemical
- measurementSetup: after 3 months storage; 25° C., heading 30° C.
// % weight in formulation after 3 months lookup, one value per entry
Give the number; % is assumed, so skip it.

Example cases with answers are listed next.
| compound | % weight in formulation after 3 months, % |
| --- | --- |
| COC(=O)c1ccc(O)cc1 [Methylparaben] | 0.17 |
| CC(C)=CCC/C(C)=C/CC/C(C)=C/C[S+]([O-])C[C@H](NC(=O)CCC(=O)O)C(=O)O (stereo partly shown) | 0.113 |
| CCCOC(=O)c1ccc(O)cc1 [Propylparaben] | 0.034 |

Kindly consider the entry below.
**Query** Need % weight in formulation after 3 months, item "CC(C)=CCC/C(C)=C/CC/C(C)=C/CSC[C@H](NC(=O)CCC(=O)O)C(=O)O"
**Result** 3.13

* * *

- testSummary: Screening Study (Example 3): sulfoxide formed in API solution with each agent, HPLC
- Format: physicochemical
- measurementSetup: 24 hours exposed to air at room temperature, not protected from light
// % area sulfoxide relative to % area Control lookup, one value per entry
Lab note: jot down the number only; don't add units.

Example cases with answers are listed next.
| molecule | reading |
| --- | --- |
| O=S([O-])CO.[Na+] [sodium hydroxymethylsulfinate] | 0.571 |
| Cc1cc(C(C)(C)C)c(O)c(C(C)(C)C)c1 [Butylated hydroxytoluene (BHT), Butylated hydroxytoluene] | 0.115 |
| O=S([O-])([O-])=S.[Na+].[Na+] [Sodium thiosulfate] | 0.055 |

Kindly consider the entry below.
**Query** Need % area sulfoxide relative to % area Control, item "O=C(CO)[C@@H](O)[C@H](O)[C@H](O)CO"
**Result** 0.146
